# System: 786-O
# Procedure details: Euclidean distance of Cell Painting phenotypic profile (signed KS, 77 features) to DMSO centroid (dimensionless distance); 5 or 10 uM (library dependent); higher = stronger phenotypic change vs DMSO (phenoactivity)
# Condition parameters: 48 h
Parameter: Euclidean distance
Please reply with the value in numeric form only.

Known Euclidean distance results, listed for orientation:
CC1=C[C@H]2C(=O)O[C@H]3C[C@@H](C/C=C(\C)C[C@@H](C)/C=C/C=C4\CO[C@H](/C1=N\O)[C@@]42O)O[C@@]1(CC[C@H](C)[C@@H](C)O1)C3.CC[C@H]1O[C@]2(CC[C@@H]1C)C[C@@H]1C[C@@H](C/C=C(\C)C[C@@H](C)/C=C/C=C3\CO[C@@H]4/C(=N\O)C(C)=C[C@@H](C(=O)O1)[C@]34O)O2; 0.91
Cc1cc(C)nc(O)n1.O=C(Nc1ccc([N+](=O)[O-])cc1)Nc1ccc([N+](=O)[O-])cc1; 1.37
CCNC(=O)Nc1ccc(-c2nc3c(c(N4CCOC[C@@H]4C)n2)CCN(C2COC2)C3)cc1; 3.58

So what does the record say about Euclidean distance for O=c1cc(CO)occ1O ? 1.24

----------
# System: FB
# Procedure details: Euclidean distance of Cell Painting phenotypic profile (signed KS, 77 features) to DMSO centroid (dimensionless distance); 5 or 10 uM (library dependent); higher = stronger phenotypic change vs DMSO (phenoactivity)
# Condition parameters: 48 h
Below is a list of entries, each paired with its recorded Euclidean distance value.
Please reply with the value in numeric form only.

O=C(/C=C/c1cccc(S(=O)(=O)Nc2ccccc2)c1)NO; 1.82
COc1ccc(-c2nc(N3CCOCC3)c3sc(CN(C)c4ncc(C(=O)NO)cn4)cc3n2)cn1; 3.52
CC#CCn1c(N2CCC[C@@H](N)C2)nc2c1c(=O)n(Cc1nc(C)c3ccccc3n1)c(=O)n2C; 1.4

Lab note: next compound to report on.
So what does the record say about Euclidean distance for C[C@H]1[C@H](NC(=O)/C(=N\OC(C)(C)C(=O)O)c2csc(N)n2)C(=O)N1S(=O)(=O)O ? 1.15

----------
# Tested on: 786-O
# Procedure details: Euclidean distance of Cell Painting phenotypic profile (signed KS, 77 features) to DMSO centroid (dimensionless distance); 5 or 10 uM (library dependent); higher = stronger phenotypic change vs DMSO (phenoactivity)
# Condition parameters: 48 h
Below is a list of entries, each paired with its recorded Euclidean distance value.
Please reply with the value in numeric form only.

Known Euclidean distance results, listed for orientation:
COc1ccc(-c2ccc3c(N4CCOC[C@@H]4C)nc(N4CCOC[C@@H]4C)nc3n2)cc1CO; 4
Cc1cccc(C)c1OCC(=O)N[C@@H](Cc1ccccc1)[C@@H](O)C[C@H](Cc1ccccc1)NC(=O)[C@H](C(C)C)N1CCCNC1=O [Lopinavir]; 2.06
NCc1ccc(S(N)(=O)=O)cc1 [Mafenide Acetate]; 0.874

Lab note: next compound to report on.
Lab note: need Euclidean distance with 786-O for entry CCCCc1oc2ccc(NS(C)(=O)=O)cc2c1C(=O)c1ccc(OCCCN(CCCC)CCCC)cc1 [Dronedarone] , please look it up. 4.33

----------
# Test system: DU145
# Procedure details: Euclidean distance of Cell Painting phenotypic profile (signed KS, 77 features) to DMSO centroid (dimensionless distance); 5 or 10 uM (library dependent); higher = stronger phenotypic change vs DMSO (phenoactivity)
# Condition parameters: 48 h
Structures can show the parent of a compound that is named as a salt.
Would you mind labelling by Euclidean distance? At or over 2 is 1, under is 0.

For orientation, consider the following solved cases.
Cn1cc(C(=O)[C@@H]2CCc3[nH]cnc3C2)c2ccccc21 [Ramosetron Hydrochloride]; 0
C[C@@H](Nc1cc(F)cc(F)c1)c1cc(C(=O)N(C)C)cc2c(=O)cc(N3CCOCC3)oc12; 0
CC(C)[C@H](O)C(=O)N[C@@H](C)C(=O)N[C@@H]1C(=O)N(C)CCc2ccccc21; 0
O=c1cc(-c2ccccc2)oc2cc(O)c(O)c(O)c12; 0

We now examine a further compound.
Can Cn1c(N2CCCCS2(=O)=O)nc(C(=O)NCc2ccc(F)cc2)c(O)c1=O be said to have Euclidean distance at or above 2? 1

Origin of measurements: the supplement of paper PMC10127200
